These entries and their values trace back to patent US20090042785A1.

Would you mind telling me the reported Kd of each entry?
biological target: mCTLA-4-Fc (R&D Systems) (mouse, UniProt P09793 36-162); experiment: SPR as in Example 9
Sequence (P09793 whole entry): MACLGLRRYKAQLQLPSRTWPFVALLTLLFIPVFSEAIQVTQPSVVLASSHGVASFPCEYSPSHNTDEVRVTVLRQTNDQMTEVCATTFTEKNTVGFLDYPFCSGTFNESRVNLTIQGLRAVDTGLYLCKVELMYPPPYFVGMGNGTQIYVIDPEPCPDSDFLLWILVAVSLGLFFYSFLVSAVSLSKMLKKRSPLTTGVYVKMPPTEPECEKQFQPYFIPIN
# output: bare number, implied unit nM

Task: Identify measured Kd corresponding to hNGAL mutein S140.4-O10 (designed binder, also called Onc I-002) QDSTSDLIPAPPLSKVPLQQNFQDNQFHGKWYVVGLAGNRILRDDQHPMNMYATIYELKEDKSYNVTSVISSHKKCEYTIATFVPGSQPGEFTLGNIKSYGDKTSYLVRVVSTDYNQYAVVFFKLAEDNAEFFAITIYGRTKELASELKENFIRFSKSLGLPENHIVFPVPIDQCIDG
Result: 40.8

Task: Identify measured Kd corresponding to hNGAL mutein S140.1-F09 (designed binder, tagged entry not tied to the name; not shown: N-terminal T7 detection tag from vector phNGAL37; C-terminal Strep-tag II from vector phNGAL37) QDSTSDLIPAPPLSKVPLQQNFQDNQFHGKWYVVGLAGNRILRDDQHPMNMYATIYELKEDKSYNVTSVISSHKKCEYTIATFVPGSQPGEFTLGNIKSYGDKTSYLVRVVSTNYNQYAVVFFKLAEDNAEFFAITIYGRTKELASELKENFIRFSKSLGLPENHIVFPVPIDQCIDG
Result: 27.9

Task: Identify measured Kd corresponding to hNGAL mutein S140.3-P07 (designed binder, tagged entry not tied to the name; not shown: N-terminal T7 detection tag from vector phNGAL37; C-terminal Strep-tag II from vector phNGAL37) QDSTSDLIPAPPLSKVPLQQNFQDNQFHGKWYVVGLAGNRILRDDQHPMNMYATIYELKEDKSYNVTSVIFPHKKCEYTIATFVPGSQPGEFTLGNIKSYGDKTSYLVRVVSTDYNQYAVVFFKLAEDDAEFFAITIYGRTKELASELKENFIRFSKSLGLPENHIVFPVPIDQCIDG
Result: 98

Task: Identify measured Kd corresponding to hNGAL mutein S140.2-P24 (designed binder, tagged entry not tied to the name; not shown: N-terminal T7 detection tag from vector phNGAL37; C-terminal Strep-tag II from vector phNGAL37) QDSTSDLIPAPPLSKVPLQQNFQDNQFHGKWYVVGLAGNRILRDDQHPMDMYATIYELKEDKSYNVTSVISSHKKCEYTIATFVPGSQPGEFTLGNIKSYGDKTSYLVRVVSTDYSQYAVVFFKLAEDNAEFFAITIYGRTKELASELKENFIRFSKSLGLPENHIVFPVPIDQCIDG
Result: 47

Task: Identify measured Kd corresponding to hNGAL mutein S140.4-B16 (designed binder, tagged entry not tied to the name; not shown: N-terminal T7 detection tag from vector phNGAL37; C-terminal Strep-tag II from vector phNGAL37) QDSTSDLIPAPPLSKVPLQQNFQDNQFHGKWYVVGLAGNRILRDDQHPMNMYATIYELKEDKSYNVTSVIFPHKKCEYTIATFVPGSQPGEFTLSDIKSYGDKTSYLVRVVSTDYNQYAVVFFKLAEDNAEFFAITIYGRTKELASELKENFIRFSKSLGLPENHIVFPVPIDQCIDG
Result: 112

Task: Identify measured Kd corresponding to hNGAL mutein S140.4-O10 without T7 tag (designed binder, also called S140.4-O10 (-T7 tag); S140.4-O10(-T7)) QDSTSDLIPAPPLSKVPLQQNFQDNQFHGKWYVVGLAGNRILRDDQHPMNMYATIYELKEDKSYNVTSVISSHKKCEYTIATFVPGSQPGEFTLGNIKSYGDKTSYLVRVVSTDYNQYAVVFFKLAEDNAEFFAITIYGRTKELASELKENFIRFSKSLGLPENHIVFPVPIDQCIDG
Result: 15.3
